ASSAY_SYSTEM: aryl sulfatase (Klebsiella aerogenes, UniProt P20713)
Construct: purchased Sigma Chemical Co
Sequence (P20713 21-464): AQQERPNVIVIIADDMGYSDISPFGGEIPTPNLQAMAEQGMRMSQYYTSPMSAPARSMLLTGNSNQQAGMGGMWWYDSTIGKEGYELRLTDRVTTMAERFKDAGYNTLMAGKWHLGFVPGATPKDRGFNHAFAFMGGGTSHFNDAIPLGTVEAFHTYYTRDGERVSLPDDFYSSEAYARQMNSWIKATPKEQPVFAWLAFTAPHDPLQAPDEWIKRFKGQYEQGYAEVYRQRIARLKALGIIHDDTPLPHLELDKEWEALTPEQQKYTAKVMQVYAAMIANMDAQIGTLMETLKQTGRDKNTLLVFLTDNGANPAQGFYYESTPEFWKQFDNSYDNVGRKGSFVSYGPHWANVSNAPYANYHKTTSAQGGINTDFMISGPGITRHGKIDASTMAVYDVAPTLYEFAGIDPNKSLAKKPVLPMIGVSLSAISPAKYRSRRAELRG
Assay type: biochemical
Parameters: key: + indicates enzyme inhibition; - indicates no enzyme inhibition
MEASUREMENT_SETUP: test inhibitor at 0.1 mM to 100 mM; 4-MUS; 37° C.; Tris pH 7; fluorescence by UV lamp

MOLECULE | inhibition of AS
O=C(O)CN(CCN(CC(=O)O)CC(=O)O)CC(=O)O [EDTA, reference compound] | -
[Zn+2] | +
[Cu+2] | +
O=P1([O-])OP(=O)([O-])OP(=O)([O-])OP(=O)([O-])OP(=O)([O-])OP(=O)([O-])O1.[Na+].[Na+].[Na+].[Na+].[Na+].[Na+] [hexametaphosphate, Sodium hexametaphosphate] | +
